- Tested on: UACC-257 melanoma
- experimentSummary: NCI-60 one-dose screen, 48 h
- assayContext: 10 µM unless noted
Compounds without any hit were thinned out: in the full panel of roughly 83,000, 20% have a hit. The source made the active and inactive calls. How the source made its calls: active means growth percent below 10; inactive means the rest.
Please reply with one of these outcomes: yes (1) (active), no (0) (inactive)

1) C#CCn1cnc2cnc(Nc3cccc(NC(=O)C=C)c3)nc21 | no (0)
2) O=C(N/N=C\c1cccc([N+](=O)[O-])c1)N/N=C/c1cccc([N+](=O)[O-])c1 | no (0)
3) Cc1cc2c(cc1C)N(C(=O)CCl)CC(=O)N2 | no (0)
4) N=C(N)c1ccc(-c2ccc(-c3ccccc3)s2)cc1 | no (0)

Any idea what this test logged for "COc1cc(OC)c(/C=C/C(=O)c2c(O)cc(OC)c(C3CCN(C)CC3)c2OC)c(OC)c1" ?
yes (1)

---

- Tested on: SNB-75 CNS
- experimentSummary: NCI-60 one-dose screen, 48 h
- assayContext: 10 µM unless noted
The panel holds about 83,000 compounds, 20% with a hit somewhere; the sample as a whole holds those more often. Active and inactive are the calls of the source. Rule for the calls: active = growth percent below 10; inactive = the rest.
Please reply with one of these outcomes: yes (1) for active, no (0) for inactive

Please review the entries below; each comes with its answer.
1) [2H]C([2H])([2H])Oc1ccc(F)cc1/C=C/C(=O)/C=C(O)/C=C/c1cc(F)ccc1OC([2H])([2H])[2H] | no (0)
2) Cc1ccc(C(=O)c2ccc(CC(=O)NN3C(=O)c4ccccc4C3=O)n2C)cc1 | no (0)
3) CC(=O)OC(c1ccccc1)C1CCOC1=O (stereo not given) | no (0)
4) COc1ccc(C(=O)/C=C/c2ccc(Cl)cc2)cc1S(=O)(=O)Nc1c(N)nc(SC)[nH]c1=O | no (0)
5) Cc1ccc2nc(-c3ccc(C(=O)NNC(=S)Nc4ccccc4)cc3)[nH]c2c1 | no (0)
6) COc1cc(NC(=O)c2cncnc2Nc2ccc3c(ccn3Cc3ccccn3)c2)cc(OC)c1 | yes (1)
7) COc1ccc(CCN2C(=O)/C(=C/c3ccc(C4Oc5ccccc5C5CC(c6ccccc6)=NN54)cc3)SC2=S)cc1 (stereo not given) | no (0)
8) Cn1cc(-c2nn3cc(-c4cccs4)nc3s2)c2cc(F)ccc21 | no (0)
9) O=c1c2c3c(sc2n2c(-c4cc(-c5ccccc5)no4)nnc2n1Cc1ccccc1)CCCC3 | no (0)

Now for a further compound.
Any idea what this test logged for "Cc1cccc[n+]1C1c2ccccc2-c2ccccc21" ?
no (0)

---

- System: HOP-92 NSCLC
- experimentSummary: NCI-60 one-dose screen, 48 h (100 = growth as untreated, 0 = no growth, -100 = all killed)
- assayContext: 10 µM unless noted
The panel holds about 83,000 compounds, 20% with a hit somewhere; the sample as a whole holds those more often.
// map growth to label using class 0 = under 40%, class 1 = from 40% up to 90%, class 2 = 90% and over

1) COc1cccc(CCNc2ncnc3c2ncn3Cc2nnc3c4ccccc4c(Cl)nn23)c1 | class 1
2) Cn1cc(-c2csc(-c3cn(CCCN4CCOCC4)c4ccccc34)n2)c2cccnc21 | class 1

Note: place this compound into its band. Item: "O=C(CSc1nc(-c2ccccc2)cc(=O)[nH]1)Nc1nc(-c2ccccc2)cs1"
class 1

Request: "C=CCn1c(SCC(=O)Nc2ccc(/C(C)=N/O)cc2)nnc1-c1cc(-c2ccc(S(N)(=O)=O)cc2)nc2ccccc12"
class 1

Request: "CC1(C)N=C(N)N=C(N)N1c1ccc(CCCCc2ccccc2)c(Cl)c1"
class 0

Request: "O=C(Nc1ccccc1O)c1ccc(CNC(=O)c2ccsc2Nc2ccnc(C(F)(F)F)c2)cc1"
class 0

Request: "C=C(C)[C@@H]1CC[C@]2(C)[C@H](CC=C3[C@@H]4CC(C)(C)CC[C@]4(CO)CC[C@]32C)[C@@]1(C)CCCN"
class 1

---

- System: 786-0 renal
- experimentSummary: NCI-60 one-dose screen, 48 h
- assayContext: 10 µM unless noted
- Protocol: Cells are grown in 96 well plates and exposed to the test compound for 48 hours. Compounds are tested at a single concentration, which is 10^-5 M for most compounds. The reported endpoint is percent growth (GI% or GIPRCNT), where numbers from 0 - 100% represent growth inhibition, and numbers from -100% - 0 represent cell death. For example, a value of 40 represents 60% growth inhibition. A value of 0 means no net growth occurred over the course of the experiment. […]
Compounds without any hit were thinned out: in the full panel of roughly 83,000, 20% have a hit. Activity calls are given as the source filed them. The calls were made as follows: active = growth percent below 10; inactive = the rest.
Please reply with one of these outcomes: active, inactive

Please review the entries below; each comes with its answer.
1) COc1ccc(C(=O)/C=C/c2ccc(N3CCCCC3)cc2)cc1OC | inactive
2) Cc1nn(-c2cc(NC3CCC(O)CC3)c3c(=O)[nH]c(CCC(F)(F)F)cc3c2)c2c1C(=O)CC(C)(C)C2 (stereo not drawn) | inactive
3) C/C=C(\C)C(=O)N[C@H]1C(O)C[C@]2(C)C3CC[C@@]4(C)C(CC[C@@H]4C(C)N(C)C)C3CCC2C1O (stereo partly drawn) | inactive
4) COc1ccc(CCN2C(=O)/C(=C/c3ccc(C4Oc5ccccc5C5CC(c6ccccc6)=NN54)cc3)SC2=S)cc1 (stereo not drawn) | inactive

Any idea what this test logged for "NC(N)=NS(=O)(=O)c1ccc(NC2=C(I)C(=O)c3ncccc3C2=O)cc1" ?
inactive

Request: "CCOc1c(OC)cc2c(c1O)C(=O)N[C@@H]1[C@@H](O)[C@@H](O)[C@H](O)C[C@@H]21"
inactive

Request: "COC(=O)CCC/C=C\C[C@H]1C=CC(=O)/C1=C/C[C@@H](O)C/C=C\CC(F)(F)F"
active

Request: "N#C/C(=C\c1cn(Cc2ccccc2)c2ccccc12)C(=O)Nc1ncc(Cc2ccccc2Cl)s1"
active

---

- Tested on: COLO 205 colon
- experimentSummary: NCI-60 one-dose screen, 48 h (100 = growth as untreated, 0 = no growth, -100 = all killed)
- assayContext: 10 µM unless noted
This is part of a sample that, as a whole, favours compounds with a hit. Of some 83,000 tested, about 20% had one in any assay.
Hi there, I'd appreciate the recorded growth for every entry that follows.
One number for each entry, in %.

1) COc1ccc(C(=O)N2c3ccccc3Sc3ccccc32)c(C(F)(F)F)c1 | -13.9

Report growth for every entry below.
1. CCOC(=O)c1cc(C(=O)c2cc(OC)c(OC)c(OC)c2)n2ccccc12
2. Cc1c(CN)cc(-c2ccc(Cl)cc2)n1-c1ccccc1
3. COC(=O)c1c2c(n3ccccc13)C(=O)c1ccccc1C2=O
4. CNC1=C([N+](=O)[O-])C(c2ccc(OC)cc2)C(C#N)=C(c2cccs2)O1 (stereo not given)

1: -31.8; 2: 110; 3: 28.1; 4: 111

---

Hi there, I'd appreciate the recorded growth for every entry that follows.
- Tested on: OVCAR-3 ovarian
- experimentSummary: NCI-60 one-dose screen, 48 h (100 = growth as untreated, 0 = no growth, -100 = all killed)
- assayContext: 10 µM unless noted
- Method: Growth inhibition of the OVCAR-3 human tumor cell line is measured as a screen for anti-cancer activity. Cells are grown in 96 well plates and exposed to the test compound for 48 hours. Compounds are tested at a single concentration, which is 10^-5 M for most compounds. The reported endpoint is percent growth (GI% or GIPRCNT), where numbers from 0 - 100% represent growth inhibition, and numbers from -100% - 0 represent cell death. For example, a value of 40 represents 60% growth inhibition. […]
Compounds without any hit were thinned out: in the full panel of roughly 83,000, 20% have a hit. Active and inactive are the calls of the source. Rule for the calls: active = growth percent below 10; inactive = the rest.

// known answers, use as guide
1) CN1CCN(c2ccc3nc4c(nc3c2C(F)(F)F)C(=O)c2ncccc2C4=O)CC1 | -27.9% (active)
2) CC1(C)NCCC[C@]2(C)[C@H]3CC[C@H]4[C@H]5[C@H](C(=O)/C=C/c6cccnc6)CCC[C@]5(CO)CC[C@@]4(C)[C@]3(C)CC[C@@H]12 | 60.1% (inactive)
3) COC(=O)c1c2c(c(C)[n+]([O-])c1C)C(=O)C(NCc1ccc(OC)cc1)=CC2=O | -18.6% (active)
4) O=C(N/N=C\c1ccccc1S(=O)(=O)O)N/N=C/c1ccccc1S(=O)(=O)O | 108% (inactive)
5) O=C(/C=C/c1ccc(Oc2ccc(Br)cc2)cc1)c1ccc(Br)cc1 | 102% (inactive)

Report growth for every entry below.
1. COc1cc2c(c(OC)c1OC)C(=O)CC(c1cccc(NC(=O)c3ccc(C#N)cc3)c1)O2 (centres undefined)
2. Clc1ccc(-c2cc(-c3ccccc3)nc(NCCNc3ccnc4cc(Cl)ccc34)n2)cc1
3. O=C1/C=C/[C@@H](O)[C@@H]2C[C@@H](O)C[C@H]2/C=C/CCC[C@@H](O)CCO1
4. O=C(NCc1cccc(CNC(=O)Nc2nc3ccccc3[nH]2)c1)Nc1nc2ccccc2[nH]1
5. CC1(C)N=C(N)N=C(N)N1c1cccc(CCc2ccccc2)c1
6. Nc1nc2c(c3ncccc13)C(c1cccc(Cl)c1)Cc1ncccc1-2 (centres undefined)
7. CN1CCN(Cc2ccc(NC(=O)c3cncc(C#Cc4cnc(N)c5ncccc45)c3)cc2C(F)(F)F)CC1
8. COc1ccc(CCN2C(=O)/C(=C/c3ccc(C4Oc5ccccc5C5CC(c6ccccc6)=NN54)cc3)SC2=S)cc1 (centres undefined)

1: 76.5% (inactive); 2: -90.6% (active); 3: 106% (inactive); 4: -42.3% (active); 5: 22.8% (inactive); 6: 0.176% (active); 7: 15.3% (inactive); 8: 105% (inactive)

Report growth for every entry below.
1. COc1ccc(-c2ccc(-c3ccc(C(=N)N)nc3)s2)cc1Cl
2. CCNC(=O)Oc1ccc(/C(=C(/C)Cc2ccc(OC)cc2)c2ccc(OCCN3CCCCC3)cc2)cc1
3. O=C(N/N=C/c1cc(Cl)ccc1O)c1ccccc1Nc1ccnc(C(F)(F)F)c1
4. COc1cc(C2C(C(=O)OCc3ccccc3)=C(C)NC(C)=C2C(=O)OCc2ccccc2)cc(OC)c1OC
5. COc1ccc(C2=CC(c3cc(OC)c(OC)c(OC)c3)n3ncnc3N2)cc1 (centres undefined)
6. COc1ccc(C(O)c2cc3c(N)c(C(=O)Nc4cccc(Cl)c4C)sc3nc2C)cc1 (centres undefined)

1. -90.6% (active)
2. 74.6% (inactive)
3. 38% (inactive)
4. 35.7% (inactive)
5. -41.4% (active)
6. -11% (active)
